- measured_target: CYP2D6 (Homo sapiens)
- Sequence (P10635 whole entry): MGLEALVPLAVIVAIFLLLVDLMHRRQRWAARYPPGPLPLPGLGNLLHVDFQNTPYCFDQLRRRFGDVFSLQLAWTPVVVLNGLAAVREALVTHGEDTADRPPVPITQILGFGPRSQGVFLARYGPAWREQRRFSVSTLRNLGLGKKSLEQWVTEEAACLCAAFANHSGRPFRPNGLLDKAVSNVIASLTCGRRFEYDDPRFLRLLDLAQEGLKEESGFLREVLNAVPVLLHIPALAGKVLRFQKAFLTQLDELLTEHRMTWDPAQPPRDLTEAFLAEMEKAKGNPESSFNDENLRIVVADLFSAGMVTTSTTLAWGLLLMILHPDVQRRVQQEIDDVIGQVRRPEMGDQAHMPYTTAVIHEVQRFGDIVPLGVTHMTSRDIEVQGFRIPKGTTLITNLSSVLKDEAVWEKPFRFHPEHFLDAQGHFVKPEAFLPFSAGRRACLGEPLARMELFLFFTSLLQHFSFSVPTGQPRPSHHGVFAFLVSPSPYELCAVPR
We begin with a simple list: items and their reported IC50.
endpoint_name: IC50

entry_smiles=C[C@]1(c2cc(NC(=O)c3ccc(C#N)cn3)ccc2F)N=C(N)O[C@@H]2CCCC(F)(F)[C@@H]21 measured_target="CYP2D6 (Homo sapiens)" observed="> 10 µM"
entry_smiles=CC#CCOc1cnc(C(=O)Nc2ccc(F)c([C@@]3(C)N=C(N)O[C@@H]4CCC(F)(F)[C@@H]43)c2)cn1 measured_target="CYP2D6 (Homo sapiens)" observed="1 to 10 µM"
entry_smiles=C[C@]1(c2cc(NC(=O)c3ccc(C#N)cn3)ccc2F)N=C(N)O[C@@H]2CCC(F)(F)[C@@H]21 measured_target="CYP2D6 (Homo sapiens)" observed="> 10 µM"
